Values were extracted from paper PMC4381075.

system: MBD2FLsc (human)
methodNotes: SPR
conditionSet: 5-methyl-C at position 9 of strand 1 (central CpG), complement mC at position 8 implied, not given, SPR: 10 mM HEPES pH 7.4, 50 mM NaCl, 3 mM MgCl2, 0.1 mM EDTA, 1 mM DTT, 0.05% polysorbate 20, FP: 10 mM HEPES pH 7.5, 50 or 150 mM NaCl
propertyMeasured: pKd
Worth noting: pKd values are minus log10 of concentrations stated in mol/L.

Q. Would you kindly share the measured pKd for GAGGCGCTCGGCGGCAG (double strand) [17 bp central mCpG, SPR] ?
A. 8.70
